# ASSAYED SYSTEM: HCN2 (Homo sapiens (Human))
# Sequence (Q9UL51 whole entry): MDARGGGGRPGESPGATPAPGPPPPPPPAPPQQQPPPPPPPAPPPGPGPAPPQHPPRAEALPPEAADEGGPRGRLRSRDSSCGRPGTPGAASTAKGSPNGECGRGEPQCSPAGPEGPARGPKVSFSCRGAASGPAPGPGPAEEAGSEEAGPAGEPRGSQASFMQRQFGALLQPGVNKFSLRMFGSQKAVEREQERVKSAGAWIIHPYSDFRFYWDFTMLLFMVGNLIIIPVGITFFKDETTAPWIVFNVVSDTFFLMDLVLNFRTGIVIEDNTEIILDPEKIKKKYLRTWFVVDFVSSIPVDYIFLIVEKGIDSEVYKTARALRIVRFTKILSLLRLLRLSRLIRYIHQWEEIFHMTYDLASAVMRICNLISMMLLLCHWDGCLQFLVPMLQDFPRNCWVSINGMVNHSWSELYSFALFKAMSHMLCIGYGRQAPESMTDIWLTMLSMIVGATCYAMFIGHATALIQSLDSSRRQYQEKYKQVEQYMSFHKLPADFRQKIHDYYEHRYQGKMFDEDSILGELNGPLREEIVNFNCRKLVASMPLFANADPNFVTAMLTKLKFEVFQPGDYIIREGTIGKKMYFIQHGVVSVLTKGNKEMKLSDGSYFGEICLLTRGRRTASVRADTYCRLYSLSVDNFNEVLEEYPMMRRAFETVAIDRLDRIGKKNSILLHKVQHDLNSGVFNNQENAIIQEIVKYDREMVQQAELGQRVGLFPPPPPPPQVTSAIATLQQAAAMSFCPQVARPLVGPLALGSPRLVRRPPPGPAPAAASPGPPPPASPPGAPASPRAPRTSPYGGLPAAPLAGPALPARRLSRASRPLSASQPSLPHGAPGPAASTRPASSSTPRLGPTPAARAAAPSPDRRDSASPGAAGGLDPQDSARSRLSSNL
# PROTOCOL SUMMARY: HCN2 current assay using the Sophion Qube
# Type: cell-based
# CONDITION NOTES: Sophion Qube protocol; read-out: SQ HCN2 IC50
Counter-ions that a name gives are not always drawn.
I'd be grateful if you could share measured pIC50 for these entries.
Entry type: numeric. Quantity: pIC50, the -log10 of concentration in molar units.

Q: Sample N[C@@H](Cc1nc(Br)ccc1F)c1ccccc1-c1noc2cc(F)ccc12 [Example 15, hydrochloride] — what was its pIC50?
Ans: 5.92

Q: Next record, please: CS(=O)(=O)c1ccc(F)c(C[C@H](N)c2ccccc2-c2noc3cc(Cl)ccc23)n1 [Example 13, hydrochloride]
Ans: 5.59

Q: Follow-up entry: CS(=O)(=O)c1ccc(F)c(C[C@H](N)c2ccccc2-c2noc3cc(F)ccc23)n1 [Example 20, hydrochloride]
Ans: 5.51

Q: Same thing, different molecule: Cc1ccc2c(-c3ccccc3[C@@H](N)Cc3nc(S(C)(=O)=O)ccc3F)noc2c1 [Example 11, hydrochloride]
Ans: 5.49

Q: Another: Cc1ccc(S(C)(=O)=O)nc1C[C@H](N)c1ccccc1-c1noc2cc(Cl)ccc12 [Example 23, hydrochloride]
Ans: 5.77

Q: What would you report for CS(=O)(=O)c1ccc(F)c(C[C@H](N)c2ccccc2-c2noc3cc(Br)ccc23)n1 [Example 21, hydrochloride] ?
Ans: 5.60
